B1: TLE6 (parent)
chain: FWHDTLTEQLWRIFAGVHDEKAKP

# Variants of: B1
# ASSAY DETAILS: protein stability index of a GFP-peptide fusion (GPS, HEK-293T) (PSI 1-6); higher = more stable;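 also: lentivirally expressed fusions sorted by FACS into six bins by GFP to DsRed ratio, PSI derived from sequencing read proportions per bin multiplied by bin number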
# CONDITION: c terminus: a fixed tail appended
Everything with protein stability index lower than 2 is no (0); everything else, including exactly 2, is yes (1).

Example cases with answers are listed next.
INSERT INTO assay_data (sequence_chain, answer_label) VALUES
  ('FWHDTLTEQLWRIFAGVHDRKAKP [E20R]', 'no (0)'),
  ('FWHDTLTEQLWRIFAGVHDNKAKP [E20N]', 'yes (1)'),
  ('FWHYTLTEQLWRIFAGVHDEKAKP [D4Y]', 'yes (1)'),
  ('FWHDTLTEQLWYIFAGVHDEKAKP [R12Y]', 'no (0)');

Request: Identify whether the reported protein stability index of the following variant is 2 or greater: FWHDALTEQLWRIFAGVHDEKAKP [T5A]
Response: no (0)

Request: Same lookup for FWHDTLTEQLWRIFAIVHDEKAKP [G16I] , please.
Response: no (0)

Request: Next: FWHDTLAEQLWRIFAGVHDEKAKP [T7A]
Response: no (0)

Request: Lookup FWHDTLTEQNWRIFAGVHDEKAKP [L10N]
Response: no (0)

Request: Okay, and FWHDTLTEQLWRIFAGVVDEKAKP [H18V] ?
Response: no (0)
